Test system: HS 578T breast
Test: NCI-60 one-dose screen, 48 h (100 = growth as untreated, 0 = no growth, -100 = all killed)
Settings: 10 µM unless noted
Procedure: Growth inhibition of the HS 578T human tumor cell line is measured as a screen for anti-cancer activity. Cells are grown in 96 well plates and exposed to the test compound for 48 hours. Compounds are tested at a single concentration, which is 10^-5 M for most compounds. The reported endpoint is percent growth (GI% or GIPRCNT), where numbers from 0 - 100% represent growth inhibition, and numbers from -100% - 0 represent cell death. For example, a value of 40 represents 60% growth inhibition. […]
Compounds without any hit were thinned out: in the full panel of roughly 83,000, 20% have a hit.
Please provide measured growth for the entries that follow.
Entry rule: numbers only, all in %.

Asked: Indicate its recorded growth; the molecule in question is "C=CCn1c(O)c(N=Nc2nc(-c3cc4ccccc4oc3=O)cs2)c2ccccc21"
Given back: 27.5

Asked: Indicate its recorded growth; the molecule in question is "COc1ccc(N=Nc2c(N)nn3c(-c4ccc([N+](=O)[O-])cc4)ccnc23)cc1"
Given back: 89

Asked: Indicate its recorded growth; the molecule in question is "C=CC[n+]1cccc2c3ccccc3ccc21"
Given back: 43.7

Asked: Indicate its recorded growth; the molecule in question is "NC(=Nc1ccc(OCCCCCCCCn2cnnn2)cc1)c1ccccc1"
Given back: 22

Asked: Indicate its recorded growth; the molecule in question is Clc1ccc(CNc2nc(SCCN3CCOCC3)nc3c2cnn3CC(Cl)c2ccc(Br)cc2)cc1 (centres undefined)
Given back: 49.4

Asked: Indicate its recorded growth; the molecule in question is "O=C(CSc1nnc(-c2ccc(-c3nc4ccc(Cl)cc4[nH]3)cc2)o1)Nc1ccccc1"
Given back: 40.6

Asked: Indicate its recorded growth; the molecule in question is "O=C(CSc1nnc(-c2ccc(-c3nc4ccccc4[nH]3)cc2)o1)Nc1ccc(Br)cc1"
Given back: 57.2

Asked: Indicate its recorded growth; the molecule in question is CN(C(=O)CN1C(=O)/C(=C/c2ccco2)SC1=S)C1CCS(=O)(=O)C1 (centres undefined)
Given back: 111

Asked: Indicate its recorded growth; the molecule in question is CN(C)c1nc(NCCNS(=O)(=O)c2ccc(C3=Nc4c(N)nc(N)nc4NC(c4ccc(C(F)(F)F)cc4)C3)cc2)nc(N2CCOCC2)n1 (centres undefined)
Given back: 40.7

---

Please provide measured growth for the entries that follow.
tested on: 786-0 renal; assay: NCI-60 one-dose screen, 48 h (100 = growth as untreated, 0 = no growth, -100 = all killed); conditions: 10 µM unless noted
The panel holds about 83,000 compounds, 20% with a hit somewhere; the sample as a whole holds those more often. The source made the active and inactive calls. Rule for the calls: active = growth percent below 10; inactive = the rest.

Asked: Indicate its recorded growth; the compound in question is "C#CCN(C)CCCOc1ccc(N(CC)C(=O)c2cc(C(C)C)c(O)cc2O)cc1Cl"
Given back: 21.6% (inactive)

Asked: Indicate its recorded growth; the compound in question is "Cn1cc(-c2cc(N)n3nc(-c4c[nH]c5ccccc45)cc3n2)c2ccccc21"
Given back: -81.6% (active)

Asked: Indicate its recorded growth; the compound in question is "Fc1ccc(Nc2nnc(-c3c[nH]c4ccccc34)o2)cc1"
Given back: 94.7% (inactive)

Asked: Indicate its recorded growth; the compound in question is "O=C(CSc1nnc(-c2ccc(-c3nc4ccccc4[nH]3)cc2)o1)Nc1ccc(Cl)cc1"
Given back: -37.8% (active)

Asked: Indicate its recorded growth; the compound in question is "COc1cc(NC(=O)CSc2nnc(-c3ccc(-c4nc5ccc(Cl)cc5[nH]4)cc3)o2)cc(OC)c1OC"
Given back: 56.7% (inactive)

Asked: Indicate its recorded growth; the compound in question is "COc1ccc(C(=O)c2c(N)c(C#N)cn2-c2ccc([N+](=O)[O-])cc2)cc1"
Given back: 109% (inactive)

Asked: Indicate its recorded growth; the compound in question is "COc1ccc(NC2=C(I)C(=O)C(C)=C(C)C2=O)cc1"
Given back: 42.2% (inactive)

Asked: Indicate its recorded growth; the compound in question is "COC(=O)c1cc(C(=O)CBr)n2c1ccc1c3ccccc3ccc12"
Given back: 52.1% (inactive)

Asked: Indicate its recorded growth; the compound in question is "N/C(=N\c1nc2ccccc2s1)NC(=O)Nc1ccccc1[N+](=O)[O-]"
Given back: 11% (inactive)

Asked: Indicate its recorded growth; the compound in question is "COc1ccc(NC(=O)CSc2nnc(-c3ccc(-c4nc5ccc(Cl)cc5[nH]4)cc3)o2)cc1"
Given back: -64.4% (active)
